TARGET_OR_SYSTEM: Recombinant human his-tagged IGF 1R extracellular domain protein (human) (UniProt P08069)
ASSAY_NOTES: SPR, captured antibody, pH 7.4
PARAMETER_MEASURED: kon (M⁻¹ s⁻¹)
Give bare numbers, in M⁻¹ s⁻¹.

Example entries and their recorded answers appear below.
BINDER: VRDN-03111 (antibody, V domains shown) VH: QVQLVESGGGVVQPGRSLRLSCAASGFTFSDYTMHWVRQAPGKGLEWVAIIWFDGSSKYYVDSVKGRFTISRDNSKNTLYLQMNSLRAEDTAVYYCARELGRRYFDIWGRGTLVTVSS VL: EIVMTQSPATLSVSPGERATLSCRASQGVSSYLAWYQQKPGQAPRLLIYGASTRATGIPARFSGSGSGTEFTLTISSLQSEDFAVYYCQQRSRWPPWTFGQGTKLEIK
OBSERVED_RESULT: 77000

BINDER: VRDN-03112 (antibody, V domains shown) VH: QVQLVESGGGVVQPGRSLRLSCAASGFTFSDYTMHWVRQAPGKGLEWVAIIWFDGSSKYYPGSVKGRFTISRDNSKNTLYLQMNSLRAEDTAVYYCARELGRRYFDIWGRGTLVTVSS VL: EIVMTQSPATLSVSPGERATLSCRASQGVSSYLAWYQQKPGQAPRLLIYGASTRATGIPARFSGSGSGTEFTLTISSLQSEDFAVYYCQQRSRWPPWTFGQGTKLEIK
OBSERVED_RESULT: 109000

Here's the next entry for you.
Incoming: Give the measured kon of VRDN-03121 (antibody, V domains shown) VH: EVQLVESGGGVVQPGRSLRLSCAASGFTFSSYSMHWVRQAPGKGLEWVAVIWYDGSSKYYADSVKSRFTISRDNSKNTLYLQMNSLRAEDTAVYYCARELGRRYFDIWGRGTLVTVSS VL: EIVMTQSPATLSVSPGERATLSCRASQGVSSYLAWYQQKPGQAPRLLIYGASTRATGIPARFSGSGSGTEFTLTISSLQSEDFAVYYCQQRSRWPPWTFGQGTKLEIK .
Outgoing: 114000
